Where these numbers come from: patent US20240368120A1

target: human GLP-1R receptor (Homo sapiens, UniProt P43220); assay: GLP-1R low expression cell assay (cAMP TR-FRET, CHO-K1_hGLP-1Rlow_clone10 cells); settings: cAMP TR-FRET, 30 min at 25° C.
Sequence (P43220 24-463): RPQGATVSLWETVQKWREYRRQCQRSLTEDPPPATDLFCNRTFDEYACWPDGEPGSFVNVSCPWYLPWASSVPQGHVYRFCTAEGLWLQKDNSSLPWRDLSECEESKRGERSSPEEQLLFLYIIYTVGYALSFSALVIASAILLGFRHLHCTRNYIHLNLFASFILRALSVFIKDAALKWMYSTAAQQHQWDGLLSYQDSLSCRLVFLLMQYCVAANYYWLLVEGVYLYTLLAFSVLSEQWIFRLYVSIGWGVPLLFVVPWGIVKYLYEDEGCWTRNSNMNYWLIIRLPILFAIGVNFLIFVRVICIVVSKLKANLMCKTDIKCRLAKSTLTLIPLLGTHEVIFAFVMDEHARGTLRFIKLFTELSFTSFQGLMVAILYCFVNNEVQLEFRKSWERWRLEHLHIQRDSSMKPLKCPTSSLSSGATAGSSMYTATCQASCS
pEC50: −log10 of the molar value.
parameter: pEC50

[Q] I am curious: what pEC50 value has been reported for COc1cc(C(=O)O)cc2c1nc(CN1CC[C@@H](c3cccc(OCc4ccc(C#N)cc4F)n3)[C@@H]3C[C@@H]31)n2C[C@@H]1CCO1 ?
[A] > 8.00

[Q] I am curious: what pEC50 value has been reported for [2H]C([2H])(Oc1cccc(C2CCN(C([2H])([2H])c3nc4c(OC(F)F)cc(C(=O)O)cc4n3C)CC2)n1)c1ccc(Cl)cc1F ?
[A] 7.00 to 8.00

[Q] I am curious: what pEC50 value has been reported for Cn1c(CN2CCC(c3cccc(OCc4ccc(OC(F)(F)F)cc4F)n3)CC2)nc2c(OC(F)F)cc(C(=O)O)cc21 ?
[A] 6.00 to 7.00

[Q] I am curious: what pEC50 value has been reported for Cn1c(CN2CCC(c3cccc4c3O[C@@H](c3ccc(C#N)cc3F)CO4)CC2)nc2c(OCCF)cc(C(=O)O)cc21 ?
[A] < 6.00

[Q] I am curious: what pEC50 value has been reported for Cn1c(CN2CCC(c3cccc(OCc4ccc(Cl)cc4F)n3)CC2)nc2c(O)c(C(=O)O)ccc21 ?
[A] < 6.00

[Q] I am curious: what pEC50 value has been reported for Cn1c(CN2CCC(c3cccc(OCc4ccc(Cl)cc4F)n3)CC2)nc2c(OC(F)F)cc(-c3nsc(=O)[nH]3)cc21 ?
[A] 6.00 to 7.00

[Q] I am curious: what pEC50 value has been reported for COCCOc1cc(C(=O)O)cc2[nH]c(CN3CCC(c4cccc5c4O[C@@](C)(c4ccc(Cl)cn4)O5)CC3)nc12 ?
[A] 7.00 to 8.00
